System: Intestine
Assay: Biodistribution in ddY mouse intestine at 0.1 to 0.4 uCi, iv after 2 mins by gamma counting
Format: ADME, organism-based
Conditions: in vivo
measured.quantity: Drug uptake (% ID/g)
Write down the numeric answer in % ID/g and omit the unit.

For orientation, consider the following solved cases.
                                   molecule  measured_quantity  test_value
0     COc1ccc2nc3cc([125I])ccc3c(N(C)C)c2c1        Drug uptake        2.22
1        COc1ccc2nc3cc([125I])ccc3c(OC)c2c1        Drug uptake        2.59
2  CCN(CC)CCCC(C)Nc1c2ccc([125I])cc2nc2ccc(OC)cc12 (stereo unspecified)        Drug uptake        1.89
3         COc1ccc2nc3cc([125I])ccc3c(N)c2c1        Drug uptake        1.86
4        CNc1c2ccc([125I])cc2nc2ccc(OC)cc12        Drug uptake        3.82

Documented Drug uptake of COc1c2ccc([125I])cc2nc2ccc(N(C)C)cc12 : 1.86
